As an illustration, consider measured IC50 for compounds on Polymerase acidic protein (Influenza A virus (A/Puerto Rico/8/1934(H1N1)), UniProt P03433).
value.kind: IC50

CC(C)C(=O)/C=C(\O)C(=O)O    56.7 µM
NC(CC(=O)c1ccccc1)C(=O)O (stereo not drawn)    > 500 µM
O=C(O)/C(O)=C/c1cc2ccccc2o1    > 500 µM
O=C(O)/C(O)=C/S(=O)(=O)c1ccccc1    > 500 µM
O=C(O)/C(O)=C/c1nc2ccccc2o1    100 µM
O=C(O)/C(O)=C/C(=O)C1CCCCC1    29.4 µM
O=C(CC(O)C(=O)O)c1ccccc1 (stereo not drawn)    > 500 µM
Cn1c(/C=C(\O)C(=O)O)nc2ccccc21    > 500 µM
NC(=O)/C(O)=C/C(=O)C1CCCCC1    > 500 µM
O=C(O)C(=O)CCc1ccccc1    > 500 µM
O=C(O)/C(O)=C/c1nc2ccccc2s1    > 500 µM
CC(=O)/C=C(\O)C(=O)O    307 µM
O=C(O)/C(O)=C/C(=O)C1(Cc2ccc(Cl)cc2)CCCN(S(=O)(=O)Cc2ccccc2)C1 (stereo not drawn)    0.19 µM
